In this section we review reported pIC50 values for a set of compounds.
# target.of.assay: hM5 (Homo sapiens, UniProt P08912)
# Construct: expressed in transfected cells
# Sequence (P08912 1-532): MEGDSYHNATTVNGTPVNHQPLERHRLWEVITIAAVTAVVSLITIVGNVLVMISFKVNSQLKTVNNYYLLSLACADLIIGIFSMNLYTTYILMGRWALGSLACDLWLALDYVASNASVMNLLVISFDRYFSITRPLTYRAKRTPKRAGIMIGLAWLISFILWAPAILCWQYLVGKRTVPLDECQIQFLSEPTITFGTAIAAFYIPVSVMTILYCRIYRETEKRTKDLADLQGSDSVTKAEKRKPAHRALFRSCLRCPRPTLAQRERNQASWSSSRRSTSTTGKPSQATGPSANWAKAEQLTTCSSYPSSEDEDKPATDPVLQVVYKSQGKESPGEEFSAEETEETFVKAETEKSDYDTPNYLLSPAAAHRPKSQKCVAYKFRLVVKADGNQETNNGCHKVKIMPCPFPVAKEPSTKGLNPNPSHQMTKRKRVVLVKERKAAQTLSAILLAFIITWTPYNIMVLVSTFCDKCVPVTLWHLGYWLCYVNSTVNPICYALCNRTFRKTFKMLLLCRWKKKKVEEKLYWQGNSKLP
# assay.procedure: Calcium mobilization concentration-response (IC50 vs EC80 acetylcholine), CHO hM5
# Format: cell-based
# recorded.conditions: CELL LINE hM5; calcium mobilization, EC80 acetylcholine addition; read-out: IC50
pIC50: −log10 of the molar value.

compound: O=S(=O)(c1ccc2c(c1)CCO2)N1CCC(c2cn3ccnc3cn2)CC1
assay.endpoint: pIC50
measured.result: < 5.00
//
compound: Cc1cc(C#N)cnc1C1=CCN(S(=O)(=O)c2cnn(C)c2C)CC1
assay.endpoint: pIC50
measured.result: < 5.00

Input line: Looking for the measured pIC50 of Cc1cc2ncnn2cc1C1CCN(S(=O)(=O)c2cc3c(cc2F)OCC3)C1 (stereo not drawn) , can you help?
Output line: < 5.00
